Tested on: Pseudomonas aeruginosa
Assay explanation: Antibacterial activity against multidrug resistant Pseudomonas aeruginosa strains 15 1 to 3 assessed as reduction in bacterial growth incubated for 18 to 20 hrs by CLSI based microdilution method
Assay type: functional
Run parameters: time 18-20 hrs
Reported endpoint: MIC

Below: 4 compounds and their reported MIC.
INSERT INTO measurements (compound, target_under_test, reported_endpoint, measured_value) VALUES
  ('CNc1cc(F)cc2c1[nH]c1nc(Oc3cnc(C)nc3)nc(N3CC(=CCN)C3)c12', 'Pseudomonas aeruginosa', 'MIC', '≥ 16 µg/mL'),
  ('CCC(CN)=C1CN(c2nc(Oc3cnc(C)nc3)nc3[nH]c4c(NC)cc(F)c(F)c4c23)C1', 'Pseudomonas aeruginosa', 'MIC', '> 64 µg/mL'),
  ('CNc1cc(F)cc2c1[nH]c1nc(Oc3cnc(C)nc3)nc(N3CC(=C(F)CN)C3)c12', 'Pseudomonas aeruginosa', 'MIC', '> 16 µg/mL'),
  ('CCC(CN)=C1CN(c2nc(Oc3cnc(C(C)(C)O)nc3)nc3[nH]c4c(NC)cc(F)cc4c23)C1', 'Pseudomonas aeruginosa', 'MIC', '> 16 µg/mL');

-- ask What does the data say about its MIC? Entry: CNc1cc(F)cc2c1[nH]c1nc(Oc3cnc(C)nc3)nc(N3CCC(=CCN)CC3)c12
-- reply ≥ 16 µg/mL

-- ask Now the compound CNc1cc(F)cc2c1[nH]c1nc(Oc3cnc(C)nc3)nc(N3CC(=C(C)CO)C3)c12
-- reply > 64 µg/mL

-- ask Same thing, different compound: CCC(CN)=C1CN(c2nc(Sc3cnc(C)nc3)nc3[nH]c4c(NC)cc(F)cc4c23)C1
-- reply > 16 µg/mL

-- ask What do you get for CCC(CN)=C1CN(c2nc(Sc3ccc(Br)cn3)nc3[nH]c4c(NC)cc(F)cc4c23)C1 ?
-- reply > 16 µg/mL

-- ask Another compound to look at: CCC(CO)=C1CN(c2nc(Oc3cnc(C)nc3)nc3[nH]c4c(NC)cc(F)c(F)c4c23)C1
-- reply > 8 µg/mL

-- ask Likewise for CCC(CN)=C1CN(c2nc(N)nc3[nH]c4c(NC)cc(F)cc4c23)C1 ?
-- reply ≥ 16 µg/mL

-- ask Next up: CNc1cc(F)cc2c1[nH]c1nc(Oc3cnc(C)nc3)nc(N3CCC(=C(F)CN)CC3)c12
-- reply > 8 µg/mL

-- ask Would you mind doing CNc1cc(F)cc2c1[nH]c1nc(Oc3cnc(C)nc3)nc(N3CC(=C(CO)C(C)C)C3)c12 as well?
-- reply ≥ 64 µg/mL

-- ask Next compound up: CCC(CN)=C1CN(c2nc(S(C)(=O)=O)nc3[nH]c4c(NC)cc(F)cc4c23)C1
-- reply > 16 µg/mL

----------
System: Pseudomonas aeruginosa
Assay explanation: Antibacterial activity against multidrug resistant Pseudomonas aeruginosa strains 15 1 to 3 assessed as reduction in bacterial growth incubated for 18 to 20 hrs by CLSI based microdilution method
Type: functional
Run parameters: time 18-20 hrs
MIC listing for selected molecules.
Entry rule: numbers only, all in µg/mL.

Sample records with MIC:
INSERT INTO assay_data (molecule, target_under_test, reported_endpoint, measured_value) VALUES
  ('CNc1cc(F)cc2c1[nH]c1nc(Oc3cnc(C)nc3)nc(N3CC/C(=C(/F)CN)C3)c12', 'Pseudomonas aeruginosa', 'MIC', 2),
  ('CCC(CN)=C1CN(c2nc(Oc3ccc4c(c3)C(=O)NC4)nc3[nH]c4c(NC)cc(F)cc4c23)C1', 'Pseudomonas aeruginosa', 'MIC', 16);

-- ask Any idea what MIC was measured for CCC(CN)=C1CN(c2nc(Oc3cnc(C4CC4)nc3)nc3[nH]c4c(NC)cc(F)cc4c23)C1 ?
-- reply 0.5

-- ask And then CNc1cc(F)cc2c1[nH]c1nc(Oc3cnc(C)nc3)nc(N3CC(=CC(C)N)C3)c12 (centres undefined) , what is it?
-- reply 0.5

-- ask Query C=CCC(CN)=C1CN(c2nc(Oc3cnc(C)nc3)nc3[nH]c4c(NC)cc(F)cc4c23)C1 next
-- reply 1

-- ask Do the same for CNc1cc(F)cc2c1[nH]c1nc(Oc3cnc(C)nc3)nc(N3CC(=C(Cl)CN)C3)c12 please
-- reply 8

-- ask What do you have for C[C@H]1COc2c(N3CCN(C)CC3)c(F)cc3c(=O)c(C(=O)O)cn1c23.C[C@H]1COc2c(N3CCN(C)CC3)c(F)cc3c(=O)c(C(=O)O)cn1c23.O [LEVOFLOXACIN] ?
-- reply 0.5

-- ask Same again, this time with CCC(CN)=C1CN(c2nc(Oc3cnc(C(C)O)nc3)nc3[nH]c4c(NC)cc(F)cc4c23)C1 (centres undefined)
-- reply 16

----------
Tested on: Pseudomonas aeruginosa
Assay explanation: Antibacterial activity against multidrug resistant Pseudomonas aeruginosa strains 15 1 to 3 assessed as reduction in bacterial growth incubated for 18 to 20 hrs by CLSI based microdilution method
Format: functional
Run parameters: time 18-20 hrs
Listed here: items and their measured MIC.

INSERT INTO assay_data (compound, reported_endpoint, measured_value) VALUES
  ('CCC(CN)=C1CN(c2nc(NS(C)(=O)=O)nc3[nH]c4c(NC)cc(F)cc4c23)C1', 'MIC', '> 16 µg/mL');

-- ask Quick one: MIC for CCC(CO)=C1CN(c2nc(Oc3cnc(C)nc3)nc3[nH]c4c(NC)cc(F)cc4c23)C1 ?
-- reply ≥ 64 µg/mL

-- ask Okay, and CCC(CN)=C1CN(c2nc(Oc3cnc(CO)nc3)nc3[nH]c4c(NC)cc(F)cc4c23)C1 ?
-- reply > 4 µg/mL

----------
Tested on: Pseudomonas aeruginosa
Assay explanation: Antibacterial activity against multidrug resistant Pseudomonas aeruginosa strains 15 1 to 3 assessed as reduction in bacterial growth incubated for 18 to 20 hrs by CLSI based microdilution method
Assay type: functional
Run parameters: time 18-20 hrs
Reported endpoint: MIC

Take a look at these entries with their results.
INSERT INTO measurements (compound, target_under_test, measured_value) VALUES
  ('CNc1cc(F)cc2c1[nH]c1nc(Oc3cnc(C)nc3)nc(N3CCC(=C(C)CN)CC3)c12', 'Pseudomonas aeruginosa', '> 8 µg/mL'),
  ('CNc1cc(F)cc2c1[nH]c1nc(Oc3cnc(C)nc3)nc(N3CC(=C(C)CN)C3)c12', 'Pseudomonas aeruginosa', '> 4 µg/mL');

We now examine a further compound.
-- ask Checklist item: MIC tested on Pseudomonas aeruginosa, entry CNc1cc(F)cc2c1[nH]c1nc(Oc3cnc(C)nc3)nc(N3CC(=CC(C)O)C3)c12 (stereo not drawn) , value?
-- reply > 16 µg/mL

Provenance of the data: ChEMBL document CHEMBL5096186
